Entry source: patent US20110053916A1

Measured pKi, listed per entry for reference.
experimental-target: PknB (Mycobacterium tuberculosis, UniProt P9WI81)
Construct: made in house
Sequence (P9WI81 whole entry): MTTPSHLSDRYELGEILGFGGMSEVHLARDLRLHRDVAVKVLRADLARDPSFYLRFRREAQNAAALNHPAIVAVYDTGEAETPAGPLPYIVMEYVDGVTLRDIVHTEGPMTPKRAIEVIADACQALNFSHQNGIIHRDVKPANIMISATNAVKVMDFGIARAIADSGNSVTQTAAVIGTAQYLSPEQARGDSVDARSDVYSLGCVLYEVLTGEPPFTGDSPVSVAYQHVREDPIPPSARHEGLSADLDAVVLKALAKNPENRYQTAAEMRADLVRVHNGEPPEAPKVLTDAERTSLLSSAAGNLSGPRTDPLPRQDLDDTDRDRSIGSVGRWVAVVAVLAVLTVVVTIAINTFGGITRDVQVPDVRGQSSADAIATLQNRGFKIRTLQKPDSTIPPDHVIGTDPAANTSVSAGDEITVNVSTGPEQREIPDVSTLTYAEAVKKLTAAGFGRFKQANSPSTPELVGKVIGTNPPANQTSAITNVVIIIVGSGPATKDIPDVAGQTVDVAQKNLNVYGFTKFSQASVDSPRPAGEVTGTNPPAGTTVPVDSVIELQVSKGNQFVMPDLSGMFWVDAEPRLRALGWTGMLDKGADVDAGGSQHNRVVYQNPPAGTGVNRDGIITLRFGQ
experimental-details: biochemical
Set-up: species or system M. tuberculosis
condition-label: 3 nM PknB, 6 uM GarA, 3 μM ATP, 30 min; competitive tight-binding fit; several symbols in a cell = repeat determinations; read-out: Ki Values
pKi: −log10 of the molar value.

CC(C)(C)OC(=O)Nc1ccc(-c2ncc(Cl)c(Nc3cc(C4CC4)[nH]n3)n2)s1 :: 6.30 to 7.00
CC(C)(C)NS(=O)(=O)c1ccc(-c2cccc(Nc3cc(C4CC4)[nH]n3)n2)s1 :: 7.30 to 8.00
C[C@@H]1C[C@H]1c1cc(Nc2nc(-c3ccc(S(N)(=O)=O)s3)ncc2Cl)n[nH]1 (relative stereo) :: 8.00 to 9.00
C#Cc1cnc(-c2ccc(C(O)CCO)s2)nc1Nc1cc(C2CC2)[nH]n1 (stereo not drawn) :: 7.30 to 8.00
NC(=O)c1cc(-c2ncc(F)c(Nc3cc(C4CC4)[nH]n3)n2)ccc1Cl :: 7.30 to 8.00
CN(C)CCNS(=O)(=O)c1cccc(-c2ncc(Cl)c(Nc3cc(C4CC4)[nH]n3)n2)c1 :: 7.30 to 8.00
C#Cc1cnc(-c2ccc(S(C)(=O)=O)cc2)nc1Nc1cc(C2CC2)[nH]n1 :: 7.30 to 8.00
C#Cc1cnc(-c2ccc(S(=O)(=O)NCCNC(C)=O)s2)nc1Nc1cc(C2CC2)[nH]n1 :: 7.30 to 8.00
NS(=O)(=O)c1ccc(-c2nccc(Nc3cc(C4CC4)[nH]n3)n2)cc1 :: 7.30 to 8.00
N#CCc1ccc(-c2ncc(F)c(Nc3cc(C4CC4)[nH]n3)n2)cc1 :: 8.00 to 9.00

# lookup: `c1cc(Nc2cc(C3CC3)[nH]n2)nc(Nc2ccc3[nH]ncc3c2)n1` on PknB (Mycobacterium tuberculosis, UniProt P9WI81), pKi = 7.30 to 8.00

# pKi measured on PknB (Mycobacterium tuberculosis, UniProt P9WI81) for item `CC(C)(C)NS(=O)(=O)c1ccc(-c2ncc(CO)c(Nc3cc(C4CC4)[nH]n3)n2)s1` = 6.30 to 7.00

Summary line: `O=S(=O)(NC1CC1)c1ccc(-c2ncc(Cl)c(Nc3cc(C4CC4)[nH]n3)n2)s1` , PknB (Mycobacterium tuberculosis, UniProt P9WI81), reported pKi = 7.30 to 8.00

Result for `NS(=O)(=O)c1ccc(-c2nccc(Nc3cc(C4CC4)[nH]n3)n2)cn1` , tested on PknB (Mycobacterium tuberculosis, UniProt P9WI81), pKi: 7.00 to 7.30

The reported pKi value, PknB (Mycobacterium tuberculosis, UniProt P9WI81), for `NS(=O)(=O)c1cccc(-c2ncc(CO)c(Nc3cc(C4CC4)n[nH]3)n2)c1` reads 7.00 to 7.30
